# measuredOn: AauA (Escherichia coli)
# Construct: gene ECs_0374
# Sequence (Q8X6A6 29-328 limits assumed): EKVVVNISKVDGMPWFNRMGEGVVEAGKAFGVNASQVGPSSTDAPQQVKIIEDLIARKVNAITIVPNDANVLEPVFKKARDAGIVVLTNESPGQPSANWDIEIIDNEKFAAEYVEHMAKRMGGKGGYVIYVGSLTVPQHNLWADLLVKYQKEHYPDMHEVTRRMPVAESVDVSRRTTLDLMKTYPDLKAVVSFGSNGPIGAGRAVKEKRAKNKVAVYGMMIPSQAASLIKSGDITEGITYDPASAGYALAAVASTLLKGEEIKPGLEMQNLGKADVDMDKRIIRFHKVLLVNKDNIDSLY
# testProtocol: isothermal titration calorimetry
# Assay type: binding
# setupConditions: 50 mM HEPES, 150 mM NaCl, pH 7.0, 25 °C; 70 µM AauA; single-site model
reportedMetric: pKd
pKd is a log-scale quantity: -log10 of the concentration expressed in molar.

-- ask Would you please give the reported pKd of OC1OC[C@H](O)[C@H](O)[C@H]1O (stereo partly shown) with AauA (Escherichia coli)?
-- reply 3.22
